molecular target: TNKS2 (Homo sapiens); construct: GST-tagged Tnks-2 (873-1166 aa, prepared in-house); made in house; assay: TNKS2 activity ELISA (autoparsylation assay); type: biochemical; details: GST-tagged Tnks-2 (873-1166 aa); read-out: IC50 [M] TNKS2 ELISA
Sequence (Q9H2K2 873-1166): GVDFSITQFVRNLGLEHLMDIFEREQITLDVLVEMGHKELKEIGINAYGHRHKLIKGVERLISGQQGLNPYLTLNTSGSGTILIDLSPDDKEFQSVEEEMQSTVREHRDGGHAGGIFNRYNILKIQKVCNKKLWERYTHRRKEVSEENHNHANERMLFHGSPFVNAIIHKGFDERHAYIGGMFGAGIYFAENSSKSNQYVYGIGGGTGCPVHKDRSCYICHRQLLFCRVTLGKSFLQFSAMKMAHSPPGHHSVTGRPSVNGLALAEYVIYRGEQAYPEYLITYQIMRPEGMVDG
reported metric: IC50 (M)
Please respond with the number in M and leave the unit unwritten.

Ask: Form field: reported IC50 of Cn1cc(C(=O)C2CCN(C(=O)CCCc3nn4c(F)c(F)cc4c(=O)[nH]3)CC2)cn1
Result: 1.5e-09

Ask: May I ask what IC50 has been recorded for N#Cc1cc(C2CCN(C(=O)CCCc3nn4cccc4c(=O)[nH]3)CC2)cnc1N ?
Result: 2.6e-09

Ask: Can you share its IC50? I mean this molecule: CCn1cc(C(=O)C2CCN(C(=O)CCCc3nn4cc(F)cc4c(=O)[nH]3)CC2)cn1
Result: 1.4e-09

Ask: // lookup IC50 for CC(C)n1cc(C(=O)C2CCN(C(=O)CCCc3cn4cccc4c(=O)[nH]3)CC2)cn1
Result: 3.2e-10

Ask: # IC50 lookup, item N#Cc1ccc(OC2CCN(C(=O)CCCc3nn4cccc4c(=O)[nH]3)CC2)cc1
Result: 6.5e-08

Ask: Entry Cn1cc(C(=O)C2CCN(C(=O)CCCc3cn4cncc4c(=O)[nH]3)CC2)cn1 has what IC50?
Result: 2.8e-09

Ask: Could you share which IC50 value was measured for O=C(c1ccc(F)c(F)c1)C1CCN(C(=O)CCCc2nc3c(c(=O)[nH]2)COCC3)CC1 ?
Result: 1.2e-09

Ask: What value of IC50 has been recorded for this entry: Cn1ccc2c(=O)[nH]c(CCCC(=O)N3CCC(C(=O)c4ccc(C(C)(F)F)cc4)CC3)nc21
Result: 1.2e-10
